- tested-on: MLK3 (Homo sapiens)
- Construct: purchased Dundee DU8313
- Sequence (Q16584 whole entry): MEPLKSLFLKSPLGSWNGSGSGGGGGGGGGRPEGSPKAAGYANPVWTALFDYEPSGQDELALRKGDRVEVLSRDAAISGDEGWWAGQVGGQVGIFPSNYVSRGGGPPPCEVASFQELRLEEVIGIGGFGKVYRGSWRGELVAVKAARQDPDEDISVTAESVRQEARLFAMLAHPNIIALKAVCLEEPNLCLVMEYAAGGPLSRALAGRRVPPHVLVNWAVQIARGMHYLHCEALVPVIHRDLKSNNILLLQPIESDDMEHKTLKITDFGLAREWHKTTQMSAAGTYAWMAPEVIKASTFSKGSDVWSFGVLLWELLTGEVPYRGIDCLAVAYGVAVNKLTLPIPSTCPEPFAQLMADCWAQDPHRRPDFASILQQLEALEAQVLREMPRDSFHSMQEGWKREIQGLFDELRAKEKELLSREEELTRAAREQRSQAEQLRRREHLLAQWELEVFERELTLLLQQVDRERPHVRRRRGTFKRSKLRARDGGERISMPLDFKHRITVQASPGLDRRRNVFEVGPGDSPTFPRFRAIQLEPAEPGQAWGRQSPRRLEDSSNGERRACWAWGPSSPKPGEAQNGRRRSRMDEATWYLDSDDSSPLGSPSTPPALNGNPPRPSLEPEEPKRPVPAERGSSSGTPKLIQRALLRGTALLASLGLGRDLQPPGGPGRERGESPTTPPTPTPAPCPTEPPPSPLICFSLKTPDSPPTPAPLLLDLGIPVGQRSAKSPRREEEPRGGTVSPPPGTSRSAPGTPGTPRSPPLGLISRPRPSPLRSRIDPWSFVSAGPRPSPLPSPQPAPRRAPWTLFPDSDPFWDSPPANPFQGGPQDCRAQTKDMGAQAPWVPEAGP
- test-method-notes: Radiometric filter plate MLK3 assay; note: 2 µM cold ATP (Km)
- Type: biochemical
- condition-details: read-out: MK3 IC50
- Protocol: After a twenty minute incubation, the reactions were washed through filter plates and read on a scintillation counter. Results are shown in Table 10 below, in which +++ indicates ≦0.1 μM, ++ indicates >0.1 μM and ≦1 μM, and + indicates >1 μM.
Below, each entry is listed with its recorded IC50.

compound=COc1cc(-c2cnc3[nH]cc(-c4ccc5[nH]ccc5c4)c3c2)ccc1N tested_on="MLK3 (Homo sapiens)" metric=IC50 result="< 100 nM"
compound=CN1CCN(Cc2ccc(-c3c[nH]c4ncc(-c5ccc(C(N)=O)cc5)cc34)cc2)CC1 tested_on="MLK3 (Homo sapiens)" metric=IC50 result="< 100 nM"
compound=COc1cc(-c2cnc3c(c2)C(CC2CC2)(CC2CC2)C(=O)N3)cc(OC)c1OC tested_on="MLK3 (Homo sapiens)" metric=IC50 result="> 1000 nM"

Prompt: # IC50 lookup, item Nc1ncc(-c2cnc3[nH]cc(-c4ccc5[nH]ccc5c4)c3c2)cn1
Response: < 100 nM

Prompt: Record: O=C(CC1CC1)N1CCN(Cc2ccc(-c3cnc4[nH]cc(-c5ccc6[nH]ccc6c5)c4c3)cc2)CC1
Response: < 100 nM

Prompt: Record: COc1ccc(-n2c(=O)[nH]c3ncc(-c4ccncc4)nc32)cc1
Response: > 1000 nM

Prompt: Record: O=C1CCC(C(=O)N2CCN(Cc3ccc(-c4cnc5[nH]cc(-c6ccc7[nH]ccc7c6)c5c4)cc3)CC2)N1 (stereo not drawn)
Response: < 100 nM

Prompt: Record: COc1cc(OC)c(-c2cnc3[nH]c(=O)n(C4CCCC4)c3n2)c(OC)c1
Response: > 1000 nM

Prompt: Record: CC(C)(C)CC(=O)N1CCN(Cc2ccc(-c3cnc4[nH]cc(-c5ccc6[nH]ccc6c5)c4c3)cc2)CC1
Response: < 100 nM

Prompt: Record: CN1CCN(Cc2ccc(-c3cnc4[nH]cc(-c5ccc(F)cc5)c4c3)cc2)CC1
Response: > 1000 nM

Prompt: Record: COCC(=O)N1CCN(Cc2ccc(-c3cnc4[nH]cc(-c5ccc6[nH]ccc6c5)c4c3)cc2)CC1
Response: < 100 nM

Prompt: Record: COc1cc(-c2cnc3[nH]c(=O)n(-c4cnc5[nH]ccc5c4)c3n2)cc(OC)c1OC
Response: < 100 nM

Where these numbers come from: patent US8846909B2
